- procedure.text: Cell viability of primary human hepatocytes (CellTiter-Glo, intracellular ATP)
- Format: cell-based
- test.context: human, cryopreserved primary human hepatocytes, Table 5, alone; donor HuM4059; read-out: Cmpd (I) CC50

- structure.as.smiles: "O=C(Nc1cc(F)c(F)c(F)c1)c1ccc(F)c(S(=O)(=O)N2CCC(O)CC2)c1"
  CC50 at 6 days [µM]: 83

====

- Test system: rtL180M/M204V HBV variant
- procedure.text: Antiviral activity in HepG2 cells transiently transfected with rtL180M/M204V HBV variant
- Format: cell-based, HBV genotype B
- test.context: Hepatitis B virus, HepG2, read-out: mean EC50 against rtL180M/M204V variant
- Procedure: In this example, the antiviral activity of Compound 1 was determined using HepG2 liver cells transiently transfected with plasmids expression replication-competent HBV DNA and quantitation of intracellular encapsidated HBV DNA. […]
Counter-ions that a name gives are not always drawn.
measurement.label: EC50

- compound: "CC(C)OC(=O)OCOP(=O)(CO[C@H](C)Cn1cnc2c(N)ncnc21)OCOC(=O)OC(C)C [TDF, tenofovir disoproxil fumarate]"
  observed.result: "34 nM"
